Every entry's value here was drawn from ChEMBL document CHEMBL4017489.

target: Nucleoside diphosphate kinase B (Homo sapiens, UniProt P22392, H118F); test: Binding affinity to N-terminal NT-647-NHS labeled NM23-H2 H118F mutant (unknown origin) after 30 mins by MST analysis
Sequence (P22392 whole entry H118F): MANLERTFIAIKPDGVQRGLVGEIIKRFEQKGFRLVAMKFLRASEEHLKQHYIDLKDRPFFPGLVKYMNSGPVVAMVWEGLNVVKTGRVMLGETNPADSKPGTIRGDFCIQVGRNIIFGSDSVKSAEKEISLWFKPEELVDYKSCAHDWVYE
metric-name: Kd (µM)
Please give a number only; it is taken to be in µM.

Query: Kd; subject: CN(C)CCCNc1cc2nc3n(c(=O)c2cc1F)CC/C3=C\c1ccc(OCc2ccccc2)cc1O
7.7

---

target: Nucleoside diphosphate kinase B (Homo sapiens); experiment: Binding affinity to NM23-H2 (unknown origin) by SPR analysis
pKd: −log10 of the molar value.
metric-name: pKd

>>> df
                               smiles_entry  metric_name  recorded_measurement
0  CCN(CC)CCCNc1cc2nc3n(c(=O)c2cc1F)CC/C3=C\c1cc(OC)c(OC)c(OC)c1          pKd                  4.79

a: CN(C)CCCNc1cc2nc3n(c(=O)c2cc1F)CC/C3=C\c1ccc(O)c(O)c1
b: COc1cc(/C=C2\CCn3c2nc2cc(NCCCN(C)C)c(F)cc2c3=O)cc(OC)c1OC
c: CN(C)CCCNc1cc2nc3n(c(=O)c2cc1F)CC/C3=C\c1ccc(OCc2ccccc2)cc1O
d: O=Cc1ccc(/C=C2\CCn3c2nc2cc(NCCCN4CCOCC4)c(F)cc2c3=O)cc1
Ascending by pKd, please. Give the labels in the order requested.
d, b, a, c
(d: 4.42, b: 4.77, a: 5.04, c: 5.51)
